// data source = patent US20120178742A1

# test_target: human metabotropic glutamate receptor mGluR5 (Homo sapiens)
# Sequence (P41594 21-1212): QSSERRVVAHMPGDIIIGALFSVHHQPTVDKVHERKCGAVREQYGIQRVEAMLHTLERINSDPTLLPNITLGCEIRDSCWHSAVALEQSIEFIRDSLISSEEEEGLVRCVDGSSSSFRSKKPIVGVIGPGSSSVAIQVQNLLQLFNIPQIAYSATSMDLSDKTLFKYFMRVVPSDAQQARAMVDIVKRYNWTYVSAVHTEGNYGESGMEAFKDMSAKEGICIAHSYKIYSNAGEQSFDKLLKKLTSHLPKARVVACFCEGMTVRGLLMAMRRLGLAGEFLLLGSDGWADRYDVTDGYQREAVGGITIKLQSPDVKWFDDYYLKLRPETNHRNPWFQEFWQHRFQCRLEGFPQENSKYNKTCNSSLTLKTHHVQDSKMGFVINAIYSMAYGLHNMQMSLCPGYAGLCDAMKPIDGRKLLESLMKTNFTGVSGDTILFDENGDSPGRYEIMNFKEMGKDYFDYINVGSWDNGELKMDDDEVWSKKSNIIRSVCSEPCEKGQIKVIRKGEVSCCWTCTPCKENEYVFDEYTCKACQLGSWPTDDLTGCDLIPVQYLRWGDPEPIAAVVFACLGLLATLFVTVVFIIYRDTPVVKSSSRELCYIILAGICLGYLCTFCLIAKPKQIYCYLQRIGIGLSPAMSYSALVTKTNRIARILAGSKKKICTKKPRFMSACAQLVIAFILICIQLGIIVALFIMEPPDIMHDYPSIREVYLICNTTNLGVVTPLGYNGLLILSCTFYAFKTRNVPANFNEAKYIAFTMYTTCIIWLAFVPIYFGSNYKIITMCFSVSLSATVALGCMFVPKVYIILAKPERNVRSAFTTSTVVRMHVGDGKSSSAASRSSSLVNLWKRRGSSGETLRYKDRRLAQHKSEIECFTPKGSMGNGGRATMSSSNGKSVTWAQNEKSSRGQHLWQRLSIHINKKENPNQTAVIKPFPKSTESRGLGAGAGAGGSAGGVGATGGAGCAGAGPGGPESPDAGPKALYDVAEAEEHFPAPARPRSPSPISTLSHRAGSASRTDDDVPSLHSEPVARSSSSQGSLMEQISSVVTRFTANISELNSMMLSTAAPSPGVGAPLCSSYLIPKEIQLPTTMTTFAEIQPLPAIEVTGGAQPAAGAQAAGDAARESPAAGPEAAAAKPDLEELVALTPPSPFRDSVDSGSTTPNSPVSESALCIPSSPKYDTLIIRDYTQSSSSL
# assay_text: Cytosolic calcium studies with stably transfected cells (CHO-K1)
readout_kind: log10(EC50) (log10 of the value in nM)
Hi team, quick reminder: these entries are log10 of EC50 (nM).

Reference set (6 entries):
{"compound": "Fc1cccc(C#Cc2cnc3ncsc3c2)c1", "readout_kind": "log10(EC50)", "result_number": 1.36}
{"compound": "O=C(c1cc2ccc(C#Cc3ccccc3)cn2n1)N1CCCCC1", "readout_kind": "log10(EC50)", "result_number": 2.40}
{"compound": "Fc1ccccc1C#Cc1ccc2ncnn2c1", "readout_kind": "log10(EC50)", "result_number": 2.87}
{"compound": "O=C(c1cc2ncc(C#Cc3ccccc3)cn2n1)N1CCC(c2ccccc2)CC1", "readout_kind": "log10(EC50)", "result_number": 2.53}
{"compound": "Fc1cccc(C#Cc2cnc3nccnc3c2)c1", "readout_kind": "log10(EC50)", "result_number": 2.00}
{"compound": "C(#Cc1cnc2ncnn2c1)c1ccccc1", "readout_kind": "log10(EC50)", "result_number": 2.11}

stdin: Which measured log10(EC50) belongs to `Fc1ccc(-c2cc3ncc(C#Cc4ccccc4)cn3n2)cc1` , tested on human metabotropic glutamate receptor mGluR5 (Homo sapiens)?
stdout: 1.97

stdin: Which measured log10(EC50) belongs to `Fc1ccccc1C#Cc1cnc2ncnn2c1` , tested on human metabotropic glutamate receptor mGluR5 (Homo sapiens)?
stdout: 3.00

stdin: Which measured log10(EC50) belongs to `CC(C)(C)OC(=O)N1CC=C(C#Cc2cnc3ccnn3c2)CC1` , tested on human metabotropic glutamate receptor mGluR5 (Homo sapiens)?
stdout: 3.11

stdin: Which measured log10(EC50) belongs to C(#Cc1cnc2ncoc2c1)c1ccccc1 [Example 42, 6-Phenylethynyl-oxazolo[4,5-b]pyridine] , tested on human metabotropic glutamate receptor mGluR5 (Homo sapiens)?
stdout: 2.67

----------
pEC50: recorded values
# test_target: mGluR5 receptors (Rattus norvegicus, UniProt P31424)
# Construct: Primary astrocyte cultures are prepared from cortices of newborn rats; endogenous in cells
# Sequence (P31424 21-1203): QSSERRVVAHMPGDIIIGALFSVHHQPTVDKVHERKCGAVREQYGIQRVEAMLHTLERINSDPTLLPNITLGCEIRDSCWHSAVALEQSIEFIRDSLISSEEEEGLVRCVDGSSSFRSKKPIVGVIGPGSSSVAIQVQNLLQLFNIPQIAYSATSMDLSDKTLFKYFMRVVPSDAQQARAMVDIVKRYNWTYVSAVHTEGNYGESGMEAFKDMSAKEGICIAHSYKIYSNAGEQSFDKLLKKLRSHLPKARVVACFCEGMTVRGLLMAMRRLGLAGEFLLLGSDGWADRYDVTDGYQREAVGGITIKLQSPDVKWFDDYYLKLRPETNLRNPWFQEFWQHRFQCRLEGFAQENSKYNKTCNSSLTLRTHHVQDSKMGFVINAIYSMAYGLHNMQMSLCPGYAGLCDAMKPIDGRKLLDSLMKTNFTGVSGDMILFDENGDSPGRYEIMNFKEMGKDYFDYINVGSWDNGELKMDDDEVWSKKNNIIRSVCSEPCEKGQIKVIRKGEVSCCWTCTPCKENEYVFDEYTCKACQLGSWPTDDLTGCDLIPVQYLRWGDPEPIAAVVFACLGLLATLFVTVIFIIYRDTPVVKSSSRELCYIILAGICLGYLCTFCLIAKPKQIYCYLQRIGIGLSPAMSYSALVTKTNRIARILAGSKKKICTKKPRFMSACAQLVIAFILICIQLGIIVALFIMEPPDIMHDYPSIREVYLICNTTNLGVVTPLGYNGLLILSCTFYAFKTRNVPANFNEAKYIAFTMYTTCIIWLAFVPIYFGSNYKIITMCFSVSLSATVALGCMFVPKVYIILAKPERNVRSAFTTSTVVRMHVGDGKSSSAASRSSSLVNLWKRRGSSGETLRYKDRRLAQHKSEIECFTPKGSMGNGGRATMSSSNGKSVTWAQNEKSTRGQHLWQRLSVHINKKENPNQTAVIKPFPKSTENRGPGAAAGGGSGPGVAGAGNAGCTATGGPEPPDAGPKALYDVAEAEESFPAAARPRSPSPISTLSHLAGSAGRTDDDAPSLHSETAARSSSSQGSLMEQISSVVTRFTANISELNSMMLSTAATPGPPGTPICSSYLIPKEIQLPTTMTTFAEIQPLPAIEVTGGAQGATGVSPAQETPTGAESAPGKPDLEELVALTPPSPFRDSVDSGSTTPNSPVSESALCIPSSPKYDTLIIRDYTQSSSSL
# assay_text: Cytosolic calcium studies with cultured rat astrocytes
Please note pEC50 is a logarithmic value: minus log10 of concentration in mol/L. Answer with that number alone.

{"molecule": "C(#Cc1cnc2ncsc2c1)c1ccccc1 [Example 38, 6-Phenylethynyl-thiazolo[4,5-b]pyridine]", "pEC50": 7.14}
{"molecule": "Fc1ccccc1C#Cc1ccc2ncnn2c1", "pEC50": 6.33}
{"molecule": "Fc1ccc(C#Cc2cnc3ccnn3c2)cc1", "pEC50": 7.20}
{"molecule": "Cc1ccc(C#Cc2cnc3cccnc3c2)cc1 [Example 93, 3-(p-Tolylethynyl)-[1,5]naphthyridine]", "pEC50": 7.11}

stdin: Please report the recorded pEC50 for `Fc1cccc(C#Cc2cnc3cccnc3c2)c1` .
stdout: 8.07

stdin: Please report the recorded pEC50 for `Fc1cccc(C#Cc2cnc3ccnn3c2)c1` .
stdout: 7.12

stdin: Please report the recorded pEC50 for `C(#Cc1cnc2ncnn2c1)c1ccccc1` .
stdout: 6.64

----------
# test_target: mGluR5 receptors (Rattus norvegicus, UniProt P31424)
# Construct: Primary astrocyte cultures are prepared from cortices of newborn rats; endogenous in cells
# assay_text: Cytosolic calcium studies with cultured rat astrocytes
# Experimental: Primary astrocyte cultures are prepared from cortices of newborn rats as described by Booher and Sensenbrenner (1972, Neurobiology 2(3):97-105). […] The increase of cytosolic calcium after stimulation with the mGluR5 agonist L-quisqualate is measured using a fluorometric imaging plate reader (FLIPR) and the Ca-Kit (both Molecular Devices). […] Subsequently, plates are transferred to FLIPR to detect calcium increase with the addition of L-quisqualate (100 nM) measured as relative fluorescence units (RFU). […]
EC50: recorded values
For clarity, give the value followed by its unit.

{"chemical_structure": "C(#Cc1ccc2ncnn2c1)c1ccccc1", "EC50": "110 nM"}
{"chemical_structure": "C(#Cc1cnc2ccnn2c1)c1ccccc1", "EC50": "89 nM"}

stdin: Please report the recorded EC50 for `C(#Cc1cnc2ccnn2c1)C1=CCCCC1` .
stdout: 70 nM
